Tested on: 556581-035-R-J1-PDC complex spheroid growth
ASSAY_COMMENT: Anticancer human tumor 556581-035-R-J1-PDC patient-derived ovarian carcinoma cell line growth inhibition [AhR]
TEST_PARAMETERS: second compound 10 µM; first compound 0.1 µM; stronger effect = lower value
VALUE_TYPE: viability, T/C

**Query** So what does the record say about viability, T/C for Nc1ncn(C2CC(O)C(CO)O2)c(=O)n1 (centres undefined) + Cc1ccccc1N=Nc1ccc(NC(=O)c2ccnn2C)c(C)c1 ?
**Result** 72.4%

**Query** So what does the record say about viability, T/C for Nc1ncn(C2CC(O)C(CO)O2)c(=O)n1 (centres undefined) + Cc1cncc(-c2nc(NCCc3c[nH]c4ccccc34)c3ncn(C(C)C)c3n2)c1 ?
**Result** 82%

**Query** So what does the record say about viability, T/C for CC1COCCN1c1cc(-c2ccnn2C)c2ccnc(-c3ccn[nH]3)c2n1 (centres undefined) + Cc1cncc(-c2nc(NCCc3c[nH]c4ccccc34)c3ncn(C(C)C)c3n2)c1 ?
**Result** 64.3%

**Query** So what does the record say about viability, T/C for Nc1ccn(C2OC(CO)C(O)C2(F)F)c(=O)n1 (centres undefined) + Cc1ccccc1N=Nc1ccc(NC(=O)c2ccnn2C)c(C)c1 ?
**Result** 42.6%

###

Record form. Attribute: viability, T/C. Fill in for each entry.
Test system: 556581-035-R-J1-PDC complex spheroid growth
ASSAY_COMMENT: Anticancer human tumor 556581-035-R-J1-PDC cell line growth inhibition [AhR];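 for viability, T/C: compound exposure lasted 7 days; 100% = DMSO vehicle control growth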
TEST_PARAMETERS: second compound 10 µM; first compound 0.3 µM; stronger effect = lower value
# value in %; strip the unit string

**Query** So what does the record say about viability, T/C for CC(C)CC(NC(=O)C(Cc1ccccc1)NC(=O)c1cnccn1)B(O)O (stereo unspecified) + Cc1cncc(-c2nc(NCCc3c[nH]c4ccccc34)c3ncn(C(C)C)c3n2)c1 ?
**Result** 1.28

**Query** So what does the record say about viability, T/C for CC(C)CC(NC(=O)C(Cc1ccccc1)NC(=O)c1cnccn1)B(O)O (stereo unspecified) + CC(CO)NC(=O)c1cc(-c2ccc(Cl)cc2)nn(-c2cnn(C)c2)c1=O ?
**Result** 0.95

**Query** So what does the record say about viability, T/C for CCc1c2c(nc3ccc(O)cc13)-c1cc3c(c(=O)n1C2)COC(=O)[C@]3(O)CC + Cc1ccccc1N=Nc1ccc(NC(=O)c2ccnn2C)c(C)c1 ?
**Result** 14.2

**Query** So what does the record say about viability, T/C for CCN(c1cc(-c2ccc(CN3CCOCC3)cc2)cc(C(=O)NCc2c(C)cc(C)[nH]c2=O)c1C)C1CCOCC1 + CC(CO)NC(=O)c1cc(-c2ccc(Cl)cc2)nn(-c2cnn(C)c2)c1=O ?
**Result** 94.6

**Query** So what does the record say about viability, T/C for O=C(C=Cn1cnc(-c2cc(C(F)(F)F)cc(C(F)(F)F)c2)n1)NNc1cnccn1 + Cc1cncc(-c2nc(NCCc3c[nH]c4ccccc34)c3ncn(C(C)C)c3n2)c1 ?
**Result** 72.7

**Query** So what does the record say about viability, T/C for Nc1ncn(C2CC(O)C(CO)S2)c(=O)n1 (stereo unspecified) + CC(CO)NC(=O)c1cc(-c2ccc(Cl)cc2)nn(-c2cnn(C)c2)c1=O ?
**Result** 84

###

Tested on: 556581-035-R-J1-PDC complex spheroid growth
ASSAY_COMMENT: Anticancer human tumor 556581-035-R-J1-PDC cell line growth inhibition [AhR];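 for viability, T/C: compound exposure lasted 7 days; 100% = DMSO vehicle control growth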
TEST_PARAMETERS: second compound 3.16 µM; first compound 0.000949 µM; stronger effect = lower value
Text: Multicellular complex tumor spheroid response to aryl hydrocarbon receptor antagonists in combination with a variety of drugs and investigational agents in selected tumor cell lines […] Compounds. […] If the clinical Cmax for an agent had not been determined, the highest concentration tested was 10 microM (Table 1). […]
VALUE_TYPE: viability, T/C (%)
# value in %; strip the unit string

**Query** So what does the record say about viability, T/C for Nc1ncn(C2CC(O)C(CO)S2)c(=O)n1 (centres undefined) + Cc1ccccc1N=Nc1ccc(NC(=O)c2ccnn2C)c(C)c1 ?
**Result** 87.1

**Query** So what does the record say about viability, T/C for CC(C)CC(NC(=O)C(Cc1ccccc1)NC(=O)c1cnccn1)B(O)O (centres undefined) + Cc1ccccc1N=Nc1ccc(NC(=O)c2ccnn2C)c(C)c1 ?
**Result** 88.2

**Query** So what does the record say about viability, T/C for Nc1ncn(C2CC(O)C(CO)S2)c(=O)n1 (centres undefined) + CC(CO)NC(=O)c1cc(-c2ccc(Cl)cc2)nn(-c2cnn(C)c2)c1=O ?
**Result** 123

**Query** So what does the record say about viability, T/C for CC(C)CC(NC(=O)C(Cc1ccccc1)NC(=O)c1cnccn1)B(O)O (centres undefined) + CC(CO)NC(=O)c1cc(-c2ccc(Cl)cc2)nn(-c2cnn(C)c2)c1=O ?
**Result** 85.7

**Query** So what does the record say about viability, T/C for CCc1c2c(nc3ccc(O)cc13)-c1cc3c(c(=O)n1C2)COC(=O)[C@]3(O)CC + CC(CO)NC(=O)c1cc(-c2ccc(Cl)cc2)nn(-c2cnn(C)c2)c1=O ?
**Result** 73.6

**Query** So what does the record say about viability, T/C for CCc1c2c(nc3ccc(O)cc13)-c1cc3c(c(=O)n1C2)COC(=O)[C@]3(O)CC + Cc1ccccc1N=Nc1ccc(NC(=O)c2ccnn2C)c(C)c1 ?
**Result** 84

**Query** So what does the record say about viability, T/C for CC(C)CC(NC(=O)C(Cc1ccccc1)NC(=O)c1cnccn1)B(O)O (centres undefined) + Cc1cncc(-c2nc(NCCc3c[nH]c4ccccc34)c3ncn(C(C)C)c3n2)c1 ?
**Result** 103

**Query** So what does the record say about viability, T/C for CCc1c2c(nc3ccc(O)cc13)-c1cc3c(c(=O)n1C2)COC(=O)[C@]3(O)CC + Cc1cncc(-c2nc(NCCc3c[nH]c4ccccc34)c3ncn(C(C)C)c3n2)c1 ?
**Result** 84.2

**Query** So what does the record say about viability, T/C for Nc1ncn(C2CC(O)C(CO)S2)c(=O)n1 (centres undefined) + Cc1cncc(-c2nc(NCCc3c[nH]c4ccccc34)c3ncn(C(C)C)c3n2)c1 ?
**Result** 87.7

###

Record form. Attribute: viability, T/C. Fill in for each entry.
Tested on: 556581-035-R-J1-PDC complex spheroid growth
ASSAY_COMMENT: Anticancer human tumor 556581-035-R-J1-PDC cell line growth inhibition [AhR];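 for viability, T/C: compound exposure lasted 7 days; 100% = DMSO vehicle control growth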
TEST_PARAMETERS: second compound 3.16 µM; first compound 10 µM; stronger effect = lower value
# value in %; strip the unit string

**Query** So what does the record say about viability, T/C for COc1cc(Nc2ncc3c(n2)-c2ccc(Cl)cc2C(c2c(F)cccc2OC)=NC3)ccc1C(=O)O + Cc1cncc(-c2nc(NCCc3c[nH]c4ccccc34)c3ncn(C(C)C)c3n2)c1 ?
**Result** 65.9

**Query** So what does the record say about viability, T/C for Nc1ccccc1NC(=O)c1ccc(CNC(=O)OCc2cccnc2)cc1 + CC(CO)NC(=O)c1cc(-c2ccc(Cl)cc2)nn(-c2cnn(C)c2)c1=O ?
**Result** 20.6

**Query** So what does the record say about viability, T/C for NS(=O)(=O)OCC1CC(n2ccc3c(NC4CCc5ccccc54)ncnc32)CC1O (stereo unspecified) + Cc1ccccc1N=Nc1ccc(NC(=O)c2ccnn2C)c(C)c1 ?
**Result** 73.3

**Query** So what does the record say about viability, T/C for CC1COCCN1c1cc(C2(S(C)(=N)=O)CC2)nc(-c2ccnc3[nH]ccc23)n1 (stereo unspecified) + Cc1cncc(-c2nc(NCCc3c[nH]c4ccccc34)c3ncn(C(C)C)c3n2)c1 ?
**Result** 78.2

**Query** So what does the record say about viability, T/C for COc1cc(C2c3cc4c(cc3C(OC3OC5COC(C)OC5C(O)C3O)C3COC(=O)C23)OCO4)cc(OC)c1O (stereo unspecified) + Cc1cncc(-c2nc(NCCc3c[nH]c4ccccc34)c3ncn(C(C)C)c3n2)c1 ?
**Result** 43.7

**Query** So what does the record say about viability, T/C for COc1cccc2c1C(=O)c1c(O)c3c(c(O)c1C2=O)CC(O)(C(=O)CO)CC3OC1CC(N)C(O)C(C)O1 (stereo unspecified) + Cc1ccccc1N=Nc1ccc(NC(=O)c2ccnn2C)c(C)c1 ?
**Result** 1.64

###

Tested on: 556581-035-R-J1-PDC complex spheroid growth
ASSAY_COMMENT: Anticancer human tumor 556581-035-R-J1-PDC cell line growth inhibition [AhR]
TEST_PARAMETERS: curve of first compound; second compound 3.16 µM
Description: Multicellular complex tumor spheroid response to aryl hydrocarbon receptor antagonists in combination with a variety of drugs and investigational agents in selected tumor cell lines […] Compounds. […] If the clinical Cmax for an agent had not been determined, the highest concentration tested was 10 microM (Table 1). […]
Record form. Attribute: pIC50. Fill in for each entry.
In plain terms, pIC50 is the concentration in mol/L turned into minus its base-10 logarithm.

**Query** So what does the record say about pIC50 for O=C(C=Cc1cccc(S(=O)(=O)Nc2ccccc2)c1)NO + Cc1cncc(-c2nc(NCCc3c[nH]c4ccccc34)c3ncn(C(C)C)c3n2)c1 ?
**Result** 5.84

**Query** So what does the record say about pIC50 for CC(C)CC(NC(=O)C(Cc1ccccc1)NC(=O)c1cnccn1)B(O)O (stereo not drawn) + Cc1ccccc1N=Nc1ccc(NC(=O)c2ccnn2C)c(C)c1 ?
**Result** 8.25
